experimental details: soluble on expression in E. coli; label from the status in PepcDB or PDB records
quantity: soluble on expression in E. coli

INSERT INTO assay_data (residue_string, result_value) VALUES
  ('MKYWLYTSLFLALIFSFRSYANSDIWILIDTLEQRLSVMRGDKAQLAFNNIAIGRYGASSSRMKGDNQTPLGSFQISWIKQHHRYYRFFGVDFPNQEAADLALAEKRISRQAWLSITKAIESSRLPPQDTPLGGYIGIHGIGRGDRTVHARFNWTNGCVALTNAQIDELSSWIKIGTKVVIR', 'not soluble'),
  ('MHHHHHHIEGRHMLRPGDCEVCISYLGRFYQDLKDRDVTFSPATIEEELIKFCREARGKENRLCYYIGATDDAATKIINEVSKPLAHHIPVEKICEKLKKKDSQICELKYDKQIDLSTVDLKKLRVKELKKILDDWGEMCKGCAEKSDYIRKINELMPKYAPKAASARTDL', 'soluble'),
  ('GSHSLRYFYTAVSRPGLGEPWFIIVGYVDDMQVLRFSSKEETPRMAPWLEQEEADDWEQQTHIVTIQGQLSERNLMTLVHFYNKSMDDSHTLQWLQDCDVEPDRHLCLWYNQLAYDSEDLPTLSENPSSCTVGNSTVPQISQHLEGHCSDVLQKYLEKGKERLLRSDPPKAHVTRHPRPEGDVTLRCWALGFYPADITLTWQKDGEELTQDVEFVETRPAGDGTFQKWAAVVVPLGKVQSYTCHVDHEGLPEPLTLRWEP', 'soluble'),
  ('MEDEVFVFTPKGDLFKLAKGATVLDFAFHIHSKLGCKCIGAKVNGKNVQLKQKLNSGDQVEIMTSNTQTPKQDWLEHHHHHH', 'not soluble'),
  ('MGSDKIHHHHHHMSLNQPPHTRLRHDNPRSPNTFPSRAKVVGAEDLATTSNASTGHGFNLARPVHRNREPATPAPRVVEGANRRRSACEQDISHRHEKIYNWAPAPNTRQGQPTRRLTSRSGPKEREHAARTPRTALQCQRVLALGRVRTCASCGRGSEVLLRGLCPECFDRRYGVVEGLPWELVVDVCTSCGRVRIGHKWLEYATAEEAVGLMLSSMSLKPVHPVERVELEDWALETRLDWRTRVRLRFRANYRDTLFRVSRVIVLRLNPSTCPLCIVRRSGEYDTLVQVRGYRAGEAVEKTLNSLDPREAPIDVVPVRGGVDVYFHHRGAAARFVSRLASTARVRVSRVEHEHVGTSSLGRRRSRKTILVRLEGLTGERGE', 'not soluble');

Query sequence follows.
Any idea what soluble on expression in E. coli was measured for MGSDKIHHHHHHRFMRIMMTSVLNNTKTQKVKFWLLKNYLSPKFKETIPKLAEFYKFEFELVEYKWPKWLHKQTEKQRVMWGYKILFLDVLFPLNVDKIIFVDADQVVRADLQELMDFNLNGAPYGYVPFCESRTEMDGFRFWKSGYWKNHLMGRKYHISALYVVDLKAFREFSAGDRLRGRYDSLSADPNSLSNLDQDLPNNMLHEVPIKSLPQEWLWCETWCDDGSKEKAKTIDLCNNPLTKEPKLNSAKRIIKEWTEYDSEISKVLNSADINTPSPSVDRDEL ?
not soluble

* * *

experimental details: soluble on expression in E. coli; label from the status in PepcDB or PDB records
quantity: soluble on expression in E. coli

INSERT INTO assay_data (residue_string, quantity, result_value) VALUES
  ('MTKTVEMVITGAQVLNVYTREFEATSLWIDHGRIISNLRDEPYIAAQHVDATGQWIVPGMIDAHVHMESSMVAPSELGKVLLQHGVTTIATDPHELANVAGLEHHHHHH', 'soluble on expression in E. coli', 'not soluble'),
  ('GPGSMLYDEEECIKVIVVGDGNVGKTCMLRRFVRGDFVEQYRKTIGAEFMEKDVFLRSSKTMVKLMLWDTAGQEVFNALTQAYYRGAGAAILTFSTVDRDSLMSIAGWKQRVESVCGCITMVLCQTKFDLSHEAVITHAEAEGLASQLEVPLFRVSAKDDFNVRQLFEFTAQQCVENSAQDEAPVDDMP', 'soluble on expression in E. coli', 'not soluble'),
  ('MLSVFPLAGMSLASLHYSTHRVDQTQVYMVAAPMADYRVVMTEPAASGQDTYLETTAAFARRTGAVAAMNTNFFRWLNAQSLRSFQDYQKWIMGESNPEGISYRALRQTCLSGRGTIPAGVAGAYIVNGRVVRPYEGGYSGIVNFPAQGGIEFYRGRLPEQPFNVVSGSQQLLDGGRKLPVDGSDRTSPKAILGRRGNEYVFVVSDGRGNGGSPGLSFLQLQDFLLQQGVTEATAMDGGESATLVVEGQVKNHPRDRYCELARWLPAPALTLINLEEEAQETAMAMGRSLRPVGANIGLVPRHRPPAFLSFAFWEFLQQRLLARLRAWRDAVLEHHHHHH', 'soluble on expression in E. coli', 'not soluble');

* * *

experimental details: soluble on expression in E. coli; label from the status in PepcDB or PDB records
quantity: soluble on expression in E. coli

INSERT INTO assay_data (residue_string, result_value) VALUES
  ('LKPYCRPSTSVVLQGLPMVARKTLFMLPDGGGSAFSYASLPRLKSDTAVVGLNCPYARDPENMNCTHGAMIESFCNEIRRRQPRGPYHLGGWSSGGAFAYVVAEALVNQGEEVHSLIIIDAPIPQAMEQLPRAFYEHCNSIGLFATQPGASPDGSTEPPSYLIPHFTAVVDVMLDYKLAPLHARRMPKVGIVWAADTVMDERDAPKMKGMHFMIQKRTEFGPDGWDTIMPGASFDIVRADGANHFTLMQKEHVSIISDLIDRVMA', 'soluble'),
  ('MWLTKLVLNPASRAARRDLANPYEMHRTLSKAVSRALEEGRERLLWRLEPARGLEPPVVLVQTLTEPDWSVLDEGYAQVFPPKPFHPALKPGQRLRFRLRANPAKRLAATGKRVALKTPAEKVAWLERRLEEGGFRLLEGERGPWVQILQDTFLEVRRKKDGEEAGKLLQVQAVLFEGRLEVVDPERALATLRRGVGPGKALGLGLLSVAP', 'soluble');

* * *

experimental details: soluble on expression in E. coli; label from the status in PepcDB or PDB records
quantity: soluble on expression in E. coli

INSERT INTO assay_data (residue_string, result_value) VALUES
  ('MWQAIAKQISEVTQQPFSISERESVNGGEINDCYMISNGSQRYFVKINEKAELPIFETEIESLTQLDKSDHIFVPSPIHIGTTKEHSFLVLNYLPTKSMDKDAFYELGVSLANHHLWGDQLEYGFDCDNYLGNVLQVNTWHRRWDCFFAEQRIGWQLQLLKEKGMVLGDIDTLVKNSKLILHNHQPKPALLHGDLWHGNIALSVKGPISYDPASYWGDAECDLAMVELFGGIQDSFFEGYESISSISEGFETRQHLYSLYHVLNHCNMFGGEYMFHAQQLIDKLNLNELEHHHHHH', 'not soluble'),
  ('MGSDKIHHHHHHMHPNIATLLSANLGESRTRHLLSLVSVPDGLPSDAEGRATRAEIAQALNMVLFAGILDRVPTGRAYTDDVAATGGKVVFDHGALRTVKWRDNGALPEGEAAFTRILRPLGYRLNGNYPLDRISMTGRSYAHADAPEGIAQFFVSEFHPERFSDAFREAVGRVTGNSADPLTPRAQTLLWQLDRDGVLTVADGAELIGLLVPCFERQHGVPRLADYETLLRESAEMAWIATEGNAFNHATDRVDDVFGLSEQQKALGRPMKDKVEVSGSGRVKQTAFRADTVRRQFIGAQGETVERDVPGSFYEFITRDRFADAPAASPRVDLGFDAGNAQGIFKMTAAV', 'not soluble'),
  ('MGSDKIHHHHHHMTEEVPSMDTAPSVGDVREYWNRNPLLSHELASPGSPAFFASLDTAKREDSDRFAMDYWEFGQWAGQRVLDIGCGPGWLTVQYARGGAQVDSVDLTPRAVELAQAHLALHGQSATVREGNAEELPFPDDQFDLVAASGVLHHTPDTQATFREAFRVTKPGGQGKITLYRKGILHHPAVFAMTRIAMRLFGVKHPGADLGKNSSDVDDFIRRYDGDGNPVGIGKTDADWAADLAAAGWVVQGHEVHFFPRRFLPCARLIPVWLHEFLDTRLGTMVYFRLRKPIISGK', 'not soluble');

* * *

experimental details: soluble on expression in E. coli; label from the status in PepcDB or PDB records
quantity: soluble on expression in E. coli

Sample answers from the record:
INSERT INTO measurements (residue_string, quantity, result_value) VALUES
  ('MGSDKIHHHHHHMKKYHYSQAPLPFVGQKRMFASEFRKVLKRFSDRTVFVDLFGGSGLLSHITKRERPDATVIYNDHDNYRERLENISRTNALLSDLRRLSEGIPRHRMLSKKMHGMFLERIRREESTGFVDYLTISSSLLFSGKYARNIGELGKLNFYNNMRLSDYCCEGYLDGLEVVYCDYRELVDRYRDSPDVVFLIDPPYMATDISTYRMDWKLTDYLDVLLVLEGHPFIYFTSGKSPILDFCRWMEEHPETGNPFKGAGISTLTARMNYSSSYTDIMLYKEMTEAA', 'soluble on expression in E. coli', 'not soluble'),
  ('MGHHHHHHSHMGRCYNNIVIDASIEAVWQQIGNFHDMSWAKGVITSLVKVGPASGTEVGAKRILNDAIHETLVSLDSSNYTFTYSIDDGPDAIAKSAVDNYLGMVNLSESSTGVLVEWSSSFTSDNEKAVTEFCDP', 'soluble on expression in E. coli', 'not soluble'),
  ('MQVQAPRRTPKIQQVVEFVESLDDNHRLKGKEDGETYLIEPNAISRIYIENRQVLAETTQGDYHLGLRLYQVLEILPAYFIKISQSEIVNLKEIERFNITPNRLVEIHLKTRKLATHHAVTSKQ', 'soluble on expression in E. coli', 'not soluble'),
  ('EITHRTKTRPVKVGPLTIGGNNEVVIQSMTTTKTHDVEATVAEINRLAEAGCQIVRVACPDERAANAIADIKKRISIPLVVDIHFDYKLALKAIEGGADKIRINPGNIGRREKVEAVVKAAKDKGIPI', 'soluble on expression in E. coli', 'not soluble');

Any idea what soluble on expression in E. coli was measured for MIGQTNLFDDVLKQDERFVIVVQALEEKNGQLLKRTLREYPGLNHKQMNDLFTHLKELFSEESFAENQSAFSITVYTNLDYTADQIYAHVKRFRGKHDWTQTAKLEHHHHHH ?
soluble

Then MQYRRQPCSGVVKFNDAITLIDAGLHDLADRWSPGSFQQFLLTHYHMDHVQGLFPLRWGVGDPIPVYGPPDEQGCDDLFKHPGLLDFSHTVEPFVVFDLQGLQVTPLPLNHSKLTFGYLLETAHSRVAWLSDTAGLPEKTLKFLRNNQPQVMVMDCSHPPRADAPRNHCDLNTVLALNQVIRSPRVILTHISHQFDAWLMENALPSGFEVGFDGMEIGVALEHHHHHH ?
not soluble

Then MADKSSRSLILYGDGLARFVDPSNTNIHSLASVATCGFLSLPNAPPETENERIVREFSHLLDASEAYSIASGLKPKGNGNDISTLAERFMGLKAALVTDSSTLTSFGKLIGLDVLQLSEICQESDSFPSDATSSKLLKLLGFEGGKCLDVNLYDLVFVHFGVDEYNNGNNMGILDSLIGSIMGMAQPGSEILSRLHLSVVLSYGSVTDKDVSVFPIKTPQEDINPAFIGLVPRQSYTMRGEKTRDDVRHYCPMLVAQWQHGVTRKDLVDTLSFEALKKLCGNLVIPADRFIHEVAFKLWKAPKYGA ?
soluble
